Entry source: patent US7772245B2

Property: inhibition at 100 µM; scope: individual compounds
# Test system: HCT116 cells
# TEST: Whole cell cytotoxicity assay: Sulforhodamine B
# Format: cell-based
# CONDITIONS: Homo sapiens, HCT-116; 100 μM compound; 48 hours incubation with drug; Sulforhodamine B staining; read-out: % Inhibition of HCT116 cell growth @ 100 μM
ENDPOINT_LABEL: inhibition at 100 µM (%)

>>> endpoint_value("CN1CCCC(n2c3c(c4ccccc42)CCN(c2ncc(C(=O)NO)cn2)C3)C1 (stereo not drawn)")
97.5
>>> endpoint_value("O=C(NO)c1cnc(N2CCc3[nH]c4ccc(F)cc4c3CC2)nc1")
98.8
>>> endpoint_value("O=C(NO)c1cnc(N2CCc3[nH]c4ccc(-c5cccs5)cc4c3C2)nc1")
99
>>> endpoint_value("O=C(/C=C/c1cnc(N2CCc3c([nH]c4ccccc34)C2)nc1)NO")
98.2
>>> endpoint_value("CS(=O)(=O)Nc1cccc(-c2ccc3[nH]c4c(c3c2)CN(c2ncc(C(=O)NO)cn2)CC4)c1")
98.4
>>> endpoint_value("Nc1cccc(-c2ccc3[nH]c4c(c3c2)CN(c2ncc(C(=O)NO)cn2)CC4)c1")
99.1
>>> endpoint_value("CN(C)Cc1cccc(-c2ccc3[nH]c4c(c3c2)CN(c2ncc(C(=O)NO)cn2)CC4)c1")
98.9
>>> endpoint_value("CN(C)c1ccc(-c2ccc3[nH]c4c(c3c2)CN(c2ncc(C(=O)NO)cn2)CC4)cc1")
97.8
>>> endpoint_value("O=C(NO)c1cnc(N2CCc3c(n(CCN4CCOCC4)c4ccccc34)C2)nc1")
94
>>> endpoint_value("O=C(NO)c1cnc(N2CCc3[nH]c4ccc(C(F)(F)F)cc4c3C2)nc1")
99.1
>>> endpoint_value("O=C(NO)c1cnc(N2Cc3cccc4cccc(c34)C2)nc1")
94.6
>>> endpoint_value("O=C(NO)c1cnc(N2CCc3[nH]c4ccc(-c5ccc(CN6CCCC6)cc5)cc4c3C2)nc1")
98.9
>>> endpoint_value("O=C(NO)c1cnc(N2CCc3c(n(CCN4CCCC4)c4ccccc34)C2)nc1")
98.1
>>> endpoint_value("CC(=O)n1c2c(c3ccccc31)CCN(c1ncc(C(=O)NO)cn1)C2")
98
>>> endpoint_value("Cc1ccc2[nH]c3c(c2c1)CN(c1ncc(C(=O)NO)cn1)CC3")
99.1
>>> endpoint_value("CC(=O)NCc1cccc(-c2ccc3[nH]c4c(c3c2)CN(c2ncc(C(=O)NO)cn2)CC4)c1")
97
>>> endpoint_value("O=C(NO)c1cnc(N2CCc3[nH]c4ccc(-c5ccc(CN6CCSCC6)cc5)cc4c3C2)nc1")
97
>>> endpoint_value("CN1CCN(Cc2ccccc2-c2ccc3[nH]c4c(c3c2)CCN(c2ncc(C(=O)NO)cn2)C4)CC1")
99.4
>>> endpoint_value("CS(=O)(=O)N1CCN(Cc2cccc(-c3ccc4[nH]c5c(c4c3)CN(c3ncc(C(=O)NO)cn3)CC5)c2)CC1")
96.6
>>> endpoint_value("Cc1ccc2c(c1)C1CCN(c3ncc(C(=O)NO)cn3)CC1N2 (stereo not drawn)")
98.2
>>> endpoint_value("CC(=O)Nc1ccc(-c2ccc3[nH]c4c(c3c2)CN(c2ncc(C(=O)NO)cn2)CC4)cc1")
89.1
>>> endpoint_value("O=C(NO)c1ccc(N2CCc3c([nH]c4ccccc34)C2)cc1")
98.5
>>> endpoint_value("CC(C)c1ccc2[nH]c3c(c2c1)CN(c1ncc(C(=O)NO)cn1)CC3")
99.5
>>> endpoint_value("Cc1cc2[nH]c3c(c2cc1C)CN(c1ncc(C(=O)NO)cn1)CC3")
99
>>> endpoint_value("O=C(NO)c1cnc(N2CCc3[nH]c4ccccc4c3C2)nc1")
98.7
>>> endpoint_value("O=C(NO)c1cnc(N2CCc3c([nH]c4ccc(OCc5ccccc5)cc34)C2)nc1")
98.7
>>> endpoint_value("O=C(NO)c1cnc(N2CCc3[nH]c4ccc(-c5cccc(C(=O)N6CCCC6)c5)cc4c3C2)nc1")
88
>>> endpoint_value("CN1CCN(Cc2cccc(-c3ccc4[nH]c5c(c4c3)CCN(c3ncc(C(=O)NO)cn3)C5)c2)CC1")
98.6
>>> endpoint_value("Cc1ccc2c3c([nH]c2c1)CN(c1ncc(C(=O)NO)cn1)CC3")
98.4
>>> endpoint_value("CC(=O)n1c2c(c3cc(C)ccc31)CN(c1ncc(C(=O)NO)cn1)CC2")
93.6
>>> endpoint_value("O=C(NO)c1cnc(N2CCc3[nH]c4ccc(-c5ccc(CN6CCOCC6)o5)cc4c3C2)nc1")
91.7
>>> endpoint_value("CS(=O)(=O)NCc1cccc(-c2ccc3[nH]c4c(c3c2)CN(c2ncc(C(=O)NO)cn2)CC4)c1")
94.7
>>> endpoint_value("COc1ccc2[nH]c3c(c2c1)CCN(c1ncc(C(=O)NO)cn1)C3")
98.4
